Parameter pIC50: see the listing below.
# Test system: BEL-7404 tumor cell line
# PROCEDURE_SUMMARY: Antiproliferative activity against human BEL-7404 tumor cell line incubated for 48 hrs by MTT assay
# Format: functional, cell-based
# CONDITION: BEL-7404, 48 h
Starred links: 1 amine or outer side, 2 acyl side, 3 side chain; linkers in the order of their positions; H or OH if unused. Non-standard residues stand in square brackets, D forms with d. Residues, ends and D or L forms follow the SMILES beside them. *: point of attachment. X2 = O=C1c2ccccc2[C@](O)(CN(Cc2ccccc2)[*:1])N1CC(=O)[*:2]; Bn = c1ccc(C*)cc1
# pIC50: negative log10 of molar concentration; output just the value

Worked examples follow.
{"MOLECULE": "CC(C)C[C@@H]1NC(=O)[C@H]([C@@H](C)O)NC(=O)[C@@H]2CCCN2C(=O)CNC(=O)[C@H](Cc2ccccc2)NC(=O)[C@@H]2CCCN2C(=O)[C@H](Cc2c[nH]c3ccccc23)NC1=O [PHAKELLISTATIN 13] (cyclo(FGPTLWP))", "EXPERIMENTAL_ENDPOINT": "pIC50", "REPORTED_MEASUREMENT": 4.30}
{"MOLECULE": "CC(C)C[C@@H]1NC(=O)CN2C(=O)c3ccccc3[C@]2(O)CN(Cc2ccccc2)C(=O)[C@H]([C@@H](C)OCc2ccccc2)NC(=O)[C@@H]2CCCN2C(=O)[C@H](Cc2ccccc2)NC(=O)[C@@H]2CCCN2C(=O)[C@H](Cc2c[nH]c3ccccc23)NC1=O (cyclo(FPT(Bn)[X2]LWP))", "EXPERIMENTAL_ENDPOINT": "pIC50", "REPORTED_MEASUREMENT": 4.38}

Consider now this further molecule.
q: Specify measured pIC50 for CC(C)C[C@@H]1NC(=O)[C@H]([C@@H](C)OCc2ccccc2)NC(=O)[C@@H]2CCCN2C(=O)CN2C(=O)c3ccccc3[C@@]2(O)CN(Cc2ccccc2)C(=O)[C@H](Cc2ccccc2)NC(=O)[C@@H]2CCCN2C(=O)[C@H](Cc2c[nH]c3ccccc23)NC1=O .
a: 4.52
